proteins and their reported ΔTm of pcdh15 at cdh23:pcdh15 2:1
# SYSTEM_UNDER_TEST: T1, protocadherin-15 EC1+2, wild type, His-tagged (mouse, UniProt Q99PJ1 27-259)
# T1 construct: Protocadherin-15 (PCDH15), mouse, N-terminal fragment EC1+2; pET21a, NdeI/XhoI; predicted molecular weight 27.5 kDa; Held on the Ni-NTA chip by its His tag in SPR; also called pcdh15; pcdh15(WT); not shown: His6, C-terminal, kept
# PROCEDURE_TEXT: thermal scanning (thermal stability shift assay with SYPRO orange); pcdh15 fixed at 0.1 mg/mL (~4 μM), cdh23 0.1 to 0.5 mg/mL (~4 to 20 μM; cdh23:pcdh15 1:1 to 5:1); SEC buffer (20 mM Tris-HCl pH 7.5, 150 mM KCl, 50 mM NaCl, 2 mM CaCl2); 10 to 95°C in 0.2°C steps, 5 s equilibration; read-out: shift of the Tm of pcdh15 (ΔTm)
# RUN_PARAMETERS: both partners purified
READOUT: ΔTm of pcdh15 at cdh23:pcdh15 2:1

| PROTEIN | READOUT_VALUE |
| --- | --- |
| cadherin-23 EC1+2, wild type, His-tagged (domain or fragment, mouse, Cadherin-23 (CDH23), mouse, N-terminal fragment EC1+2; pET21a, NdeI/XhoI; predicted molecular weight 23.8 kDa; also called cdh23; cdh23(WT)) QVNRLPFFTNHFFDTYLLISEDTPVGSSVTQLLARDMDNDPLVFGVSGEEASRFFAVEPDTGVVWLRQPLDRETKSEFTVEFSVSDHQGVITRKVNIQVGDVNDNAPTFHNQPYSVRIPENTPVGTPIFIVNATDPDLGAGGSVLYSFQPPSPFFAIDSARGIVTVIQELDYEVTQAYQLTVNATDQDKTRPLSTLANLAIIITD | 3.2 °C |
| cadherin-23 EC1+2 T15E, His-tagged (domain or fragment, mouse, Cadherin-23 (CDH23), mouse, N-terminal fragment EC1+2; Mutant of m1 made with QuikChange; also called cdh23(T15E)) QVNRLPFFTNHFFDEYLLISEDTPVGSSVTQLLARDMDNDPLVFGVSGEEASRFFAVEPDTGVVWLRQPLDRETKSEFTVEFSVSDHQGVITRKVNIQVGDVNDNAPTFHNQPYSVRIPENTPVGTPIFIVNATDPDLGAGGSVLYSFQPPSPFFAIDSARGIVTVIQELDYEVTQAYQLTVNATDQDKTRPLSTLANLAIIITD | 3.9 °C |
| cadherin-23 EC1+2 F7E, His-tagged (domain or fragment, mouse, Cadherin-23 (CDH23), mouse, N-terminal fragment EC1+2; Mutant of m1 made with QuikChange; also called cdh23(F7E)) QVNRLPEFTNHFFDTYLLISEDTPVGSSVTQLLARDMDNDPLVFGVSGEEASRFFAVEPDTGVVWLRQPLDRETKSEFTVEFSVSDHQGVITRKVNIQVGDVNDNAPTFHNQPYSVRIPENTPVGTPIFIVNATDPDLGAGGSVLYSFQPPSPFFAIDSARGIVTVIQELDYEVTQAYQLTVNATDQDKTRPLSTLANLAIIITD | 4.8 °C |
| cadherin-23 EC1+2 S76V, His-tagged (domain or fragment, mouse, Cadherin-23 (CDH23), mouse, N-terminal fragment EC1+2; Mutant of m1 made with QuikChange; also called cdh23(S76V)) QVNRLPFFTNHFFDTYLLISEDTPVGSSVTQLLARDMDNDPLVFGVSGEEASRFFAVEPDTGVVWLRQPLDRETKVEFTVEFSVSDHQGVITRKVNIQVGDVNDNAPTFHNQPYSVRIPENTPVGTPIFIVNATDPDLGAGGSVLYSFQPPSPFFAIDSARGIVTVIQELDYEVTQAYQLTVNATDQDKTRPLSTLANLAIIITD | 3 °C |

Ref: paper PMC5736220
